Test system: IGROV1 ovarian
Assay: NCI-60 one-dose screen, 48 h
Conditions: 10 µM unless noted
This is part of a sample that, as a whole, favours compounds with a hit. Of some 83,000 tested, about 20% had one in any assay. Activity calls are given as the source filed them. The calls were made as follows: active = growth percent below 10; inactive = the rest.
Parameter call: string, one of active, inactive

[
  {
    "Molecule": "COc1ccc2c(c1)C(C)Cc1c(ncnc1-n1cnc3cc(C)ccc31)N2C (centres undefined)",
    "Group": "inactive"
  },
  {
    "Molecule": "COc1ccccc1S(=O)(=O)Nc1ccc2c3c(cc(CCC(=O)NCCCCNc4cccc5c4C(=O)N(C4CCC(=O)NC4=O)C5=O)cc13)C(=O)N2C (centres undefined)",
    "Group": "active"
  },
  {
    "Molecule": "CNC(=O)c1cc(Oc2ccc3c(c2)sc2nc(-c4ccc(NC(=O)[C@@H](NC(=O)OC)C(C)C)cc4)cn23)ccn1",
    "Group": "inactive"
  },
  {
    "Molecule": "COc1ccc2cc(C(=O)N3CCC([C@@H](C)C(=O)NCc4ccc5c(c4)OCO5)CC3)[nH]c2c1",
    "Group": "inactive"
  },
  {
    "Molecule": "Cc1nc2sc(C(=O)Nc3cccc(Cl)c3C)c(N)c2cc1C(=O)/C=C/c1ccccc1",
    "Group": "active"
  },
  {
    "Molecule": "Cc1ccc(OCCOCCOCCOc2ccc(C)n(O)c2=S)c(=S)n1O",
    "Group": "inactive"
  },
  {
    "Molecule": "Cc1ccc2c(c1)sc1nc(-c3c[nH]c4ccccc34)c(Nc3ccccc3)n12",
    "Group": "inactive"
  },
  {
    "Molecule": "O=C1CCCC1[n+]1ccccc1 (centres undefined)",
    "Group": "inactive"
  }
]

Query :: Per the assay record, what outcome was assigned to `COCCn1cc(-c2nc(-c3cn(CCOC)c4ncccc34)cs2)c2cc(F)ccc21` ?
Result :: inactive

###

For each of the compounds below, state its growth.
System: COLO 205 colon
Assay: NCI-60 one-dose screen, 48 h (100 = growth as untreated, 0 = no growth, -100 = all killed)
Settings: 10 µM unless noted
Compounds without any hit were thinned out: in the full panel of roughly 83,000, 20% have a hit.
One number for each entry, in %.

[
  {
    "Compound": "Cc1c2ncccc2nc2[nH]c3ccc(OCCN(C)C)cc3c12",
    "Number": 19.1
  },
  {
    "Compound": "CCNC(=O)N1CCc2c(Br)c3c(c(OC)c2C1Cc1ccc(OC)cc1)OCO3 (stereo not given)",
    "Number": 3.06
  },
  {
    "Compound": "Cc1ccc(C)c2c1sc1nc(N3CCOCC3)c(C#N)c(=O)n12",
    "Number": 104
  },
  {
    "Compound": "CN(C)CCCNC(=O)c1cncnc1Nc1ccc2c(ccn2Cc2cccc(F)c2)c1",
    "Number": 84.6
  }
]

Now let's try a different one.
Recorded growth (compound COc1ccc2c(c1)CC[C@@H]1[C@@H]2CC[C@]2(C)C3C(=CC(COC(C)=O)C4C(=O)N(c5ccc(Cl)cc5)C(=O)C43)C[C@@H]12 (stereo not given in full) ): 118

###

Test system: LOX IMVI melanoma
Assay: NCI-60 one-dose screen, 48 h
Details: 10 µM unless noted
About 83,000 compounds went through this panel and 20% of them were active in at least one assay; those are over-represented in the sample as a whole. Activity calls are given as the source filed them. How the source made its calls: active means growth percent below 10; inactive means the rest.
Assign a class; possible classes are class 1 (active), class 0 (inactive)

[
  {
    "Molecule": "COc1cc(/C=C/C(=O)c2cccc(-n3cc(-c4ccc(Cl)cc4)[nH]c3=O)c2)ccc1O",
    "Group": "class 0"
  },
  {
    "Molecule": "CC(C)C1C2=C(NCCN1C(=O)c1ccncc1)C(C)(C)N(Cc1ccccc1)C2=O (stereo unspecified)",
    "Group": "class 0"
  },
  {
    "Molecule": "CN1CC(c2ccc(Br)cc2)C(C(=O)c2ccc(Br)cc2)C12C(=O)Nc1ccccc12 (stereo unspecified)",
    "Group": "class 0"
  },
  {
    "Molecule": "C=C1C(=O)O[C@H]2[C@H]1CC/C(COC(=O)C(=O)c1c[nH]c3ccc(Cl)cc13)=C\\CC[C@@]1(C)O[C@@H]21",
    "Group": "class 1"
  },
  {
    "Molecule": "Cc1cccc(N=Nc2cccc(C)c2)c1",
    "Group": "class 0"
  }
]

Continue with the next molecule.
Query :: For `CC(C)CCC[C@@H](C)[C@H]1CC[C@H]2[C@@H]3CC=C4c5sc(Nc6cc(C(F)(F)F)cc(C(F)(F)F)c6)nc5CC[C@]4(C)[C@H]3CC[C@]12C` , which call appears in the assay record?
Result :: class 0

###

Tested on: HCT-15 colon
Experiment: NCI-60 one-dose screen, 48 h (100 = growth as untreated, 0 = no growth, -100 = all killed)
Details: 10 µM unless noted
Procedure: Growth inhibition of the HCT-15 human tumor cell line is measured as a screen for anti-cancer activity. Cells are grown in 96 well plates and exposed to the test compound for 48 hours. Compounds are tested at a single concentration, which is 10^-5 M for most compounds. The reported endpoint is percent growth (GI% or GIPRCNT), where numbers from 0 - 100% represent growth inhibition, and numbers from -100% - 0 represent cell death. For example, a value of 40 represents 60% growth inhibition. […]
The panel holds about 83,000 compounds, 20% with a hit somewhere; the sample as a whole holds those more often.
Measured attribute: growth (%)
Answers are plain numbers, in %.

[
  {
    "Compound": "Cc1cc(C)c2c(c1)N(C)c1ncnc(-n3c(C)nc4cc(C)ccc43)c1CC2C (stereo not given)",
    "Measurement units": "%",
    "Number": 32.6
  },
  {
    "Compound": "Nc1c(Cl)cc(/C=C2\\C=Cc3ccccc32)cc1Cl",
    "Measurement units": "%",
    "Number": 100
  }
]

Take each entry in turn and give its growth.
1. CCCC(=O)NC(c1ccc2c(c1)OCO2)c1cc(Cl)c2cccnc2c1O (stereo not given)
2. CSc1nc2ccc(C)cc2cc1/C=C1/C=C(c2ccccc2)NC1=O
3. CCN(CC)CCn1c2ccc(OC)cc2c2sc3cc(O)ccc3c(=O)c21

Result ::
[30.9, 57.4, 18.7]

###

Tested on: EKVX NSCLC
Experiment: NCI-60 one-dose screen, 48 h (100 = growth as untreated, 0 = no growth, -100 = all killed)
Conditions: 10 µM unless noted
This is part of a sample that, as a whole, favours compounds with a hit. Of some 83,000 tested, about 20% had one in any assay. Activity calls are given as the source filed them. Rule for the calls: active = growth percent below 10; inactive = the rest.
Measured attribute: growth

Recorded growth, per entry:
[
  {
    "Molecule": "COc1ccc(C(c2cc(OC)c(OC)c(OC)c2)N2CCCCC2)cc1 (centres undefined)",
    "Measured attribute": "growth",
    "Result": "59.1% (inactive)"
  },
  {
    "Molecule": "COc1cc(OC)c2c(=O)c3c(CC=C(C)C)cc(OC)c(O)c3oc2c1",
    "Measured attribute": "growth",
    "Result": "89.6% (inactive)"
  },
  {
    "Molecule": "O=c1oc2ccccc2cc1-c1nn(-c2ccccc2)cc1-c1nn[nH]n1",
    "Measured attribute": "growth",
    "Result": "99.4% (inactive)"
  },
  {
    "Molecule": "c1csc(-c2cn3nc(-c4c[nH]c5ccccc45)sc3n2)c1",
    "Measured attribute": "growth",
    "Result": "36% (inactive)"
  }
]

List the reported growth of each molecule below.
1. Nc1nc(C(=O)N/N=C/c2ccc(F)cc2)nn1-c1ccc(S(N)(=O)=O)cc1
2. CCOC(=O)C#Cc1c(C(=O)OCC)nnn1[C@@H]1O[C@H](COC)[C@@H](OC)[C@H]1OC
3. COC1C(O)CC(OC2CC(OC3CC(O[C@@H]4C(=O)c5c(cc6cc(OC7CC(OC8CC(O)C(O)C(C)O8)C(O)C(C)O7)c(C)c(O)c6c5O)CC4[C@H](OC)[C@@H](O)C(C)=O)OC(C)C3O)OC(C)C2O)OC1C (some centres undefined)
4. COC(=O)Cn1c2c(c3c(OC)cccc31)C(=O)c1ccccc1-2

Result ::
1. 101% (inactive)
2. 107% (inactive)
3. 19.8% (inactive)
4. 103% (inactive)

Sample CCn1cc(C(=O)N/N=C/c2cccc(F)c2)c(=O)c2cc(F)c(N3CCNC(C)C3)c(F)c21 (centres undefined) ; growth observed: 50.7% (inactive)

###

Test system: K-562 leukemia
Test: NCI-60 one-dose screen, 48 h (100 = growth as untreated, 0 = no growth, -100 = all killed)
Settings: 10 µM unless noted
This is part of a sample that, as a whole, favours compounds with a hit. Of some 83,000 tested, about 20% had one in any assay.
For each entry below, report its growth value.
Give bare numbers, in %.

Solved entries:
[
  {
    "Compound": "COc1c2c(cc3c1C(=O)N[C@@H]1[C@@H](O)[C@@H](O)[C@H](O)C[C@@H]31)OCCO2",
    "System under test": "K-562 leukemia",
    "Measurement units": "%",
    "growth": 95.6
  },
  {
    "Compound": "O=C1/C(=C/c2c[nH]c(=O)[nH]c2=O)SC(=S)N1Cc1ccccc1",
    "System under test": "K-562 leukemia",
    "Measurement units": "%",
    "growth": 101
  },
  {
    "Compound": "COc1ccc(-c2cn(Cc3cc4ccccc4s3)nn2)cc1OCCN1CCCCC1",
    "System under test": "K-562 leukemia",
    "Measurement units": "%",
    "growth": 16.3
  }
]

Please supply growth for each of the following items, keeping them in order.
1. O=C(c1c[nH]c2ccccc12)c1n[nH]c(=S)n1-c1ccc([N+](=O)[O-])cc1
2. CS(=O)(=O)Nc1cc(-c2ccc3ncnc(Nc4ccc5c(cnn5Cc5ccccc5F)c4)c3c2)cnc1Cl
3. O=C1CCCC1[n+]1ccccc1 (centres undefined)
4. COC(=O)[C@]1(C)CCC[C@]2(C)[C@H]3C[C@@H]4[C@H]5[C@@H]6CC/C(=N\OCC/C(N)=N/O)[C@H]5[C@@]3(CC[C@H]21)CC4(C(C)C)O6
5. Cc1ccc(C2CC(c3cccc(Nc4ccncc4)c3)=Nc3c(N)nc(N)nc3N2)cc1 (centres undefined)
6. CCOC(=O)C/C(=N\Nc1cc(=O)[nH]c2ccc(OC)cc12)C(=O)OCC

Result ::
[83.3, 57.3, 108, 79.3, 21.3, 89.3]
